READOUT KIND: melting point

The cases that follow already have their melting point on record.
{"columns": ["MOLECULE", "melting point"],
 "data": [
  ["Cc1cccc2c1N(C)C(=O)C(NC(=O)Nc1cccc(-c3nnn[nH]3)c1)N=C2C1CCCCC1 (racemic) [17(1)]", "198.9 to 200.7 °C"],
  ["CC1=NC(NC(=O)Nc2cccc(C)c2)C(=O)N(CC(=O)C(C)(C)C)c2c(C)cccc21 (racemic) [Example 41]", "179.6 to 181.2 °C"],
  ["Cc1cccc2c1N(CC(=O)C13CC4CC(CC(C4)C1)C3)C(=O)C(NC(=O)Nc1cccc(-c3nnn[nH]3)c1)N=C2c1ccccc1F (racemic)", "195 to 218.4 °C (dec.)"]
]}

Turning to the following molecule.
Q. What value of measured melting point is listed for CC1=NC(NC(=O)Nc2cccc(C)c2)C(=O)N(CC(=O)c2ccccc2C)c2c(C)cccc21 (racemic) [Example 37] ?
A. 128.4 to 136.2 °C

###

- TARGET DESC: CCK-A (UniProt P30551)
- Sequence (P30551 1-444): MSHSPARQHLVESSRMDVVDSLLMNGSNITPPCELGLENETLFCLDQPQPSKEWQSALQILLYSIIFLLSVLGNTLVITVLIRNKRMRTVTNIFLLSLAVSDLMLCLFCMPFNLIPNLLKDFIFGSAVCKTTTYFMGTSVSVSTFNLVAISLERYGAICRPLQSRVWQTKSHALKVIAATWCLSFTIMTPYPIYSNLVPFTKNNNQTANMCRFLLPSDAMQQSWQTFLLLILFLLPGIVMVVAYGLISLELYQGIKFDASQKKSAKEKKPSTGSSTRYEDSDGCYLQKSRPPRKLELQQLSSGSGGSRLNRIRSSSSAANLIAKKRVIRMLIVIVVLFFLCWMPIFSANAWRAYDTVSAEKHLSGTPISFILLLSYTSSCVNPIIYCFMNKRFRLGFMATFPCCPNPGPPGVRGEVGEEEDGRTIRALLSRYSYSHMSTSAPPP
- ASSAY PROTOCOL: Receptor binding studies, CCK-A
READOUT KIND: IC50 (nM)

{"columns": ["COMPOUND", "IC50 [nM]"],
 "data": [
  ["CC1=NC(NC(=O)Nc2cccc(C)c2)C(=O)N(CC(=O)C2CCCCC2)c2c(C)cccc21 (racemic) [Compound (A)]", 1.1]
]}

a = Cc1cccc(NC(=O)NC2N=C(C3CC3)c3cccc(C)c3N(CC(=O)C3CCCCC3)C2=O)c1 (racemic) [(D)]
b = CCC1=NC(NC(=O)Nc2cccc(C)c2)C(=O)N(CC(=O)C2CCCCC2)c2c(C)cccc21 (racemic) [(B)]
c = CCC1=N[C@@H](NC(=O)Nc2cccc(C)c2)C(=O)N(CC(=O)C2CCCCC2)c2c(C)cccc21 [(C)]
Q. Given 3 compounds, produce a descending ranking by IC50. Give me the labels in the order the question wants.
A. a, b, c

###

melting point values, listed per item

{"columns": ["COMPOUND", "melting point"],
 "data": [
  ["Cc1cccc2c1N(CC(=O)c1cccc([N+](=O)[O-])c1)C(=O)C(NC(=O)Nc1cccc(-c3nnn[nH]3)c1)N=C2c1ccccc1F (racemic)", "194.4 to 198.1 °C"]
]}

Q. What value of measured melting point is listed for CC1=NC(NC(=O)Nc2cccc(C)n2)C(=O)N(CC(=O)N2CC3CCC(CC3)C2)c2c(C)cccc21 (racemic) ?
A. 150.8 to 152.1 °C

Q. What value of measured melting point is listed for Cc1cccc(NC(=O)NC2N=C(c3ccccc3F)c3cccc(C(C)C)c3N(CC(=O)N3CC4CCC(CC4)C3)C2=O)c1 (racemic) ?
A. 183.3 to 186.8 °C

Q. What value of measured melting point is listed for CC1=NC(NC(=O)Nc2cccc(C)c2)C(=O)N(CC(=O)N2CCC(O)(c3ccccc3)CC2)c2c(C)cccc21 (racemic) [48-3(6)] ?
A. 163.2 to 164.9 °C

Cited source for all entries: patent US20020183313A1
